Each recorded value in this set is attributed to PubChem BioAssay (NCATS).

Assay: qHTS of pediatric cancer cell lines to identify multiple opportunities for drug repurposing: Primary screen for BT-37 cells (AID 1347094)
Details: BT-37 viability, CellTiter-Glo luminescence, 48 h; series mostly up to 57.3 µM
Results filed as inconclusive are left out. The source made the active and inactive calls. Calls come from the whole dose curve; as a rule, active = well fitted cell-killing curve with a large enough effect; inconclusive = small, poorly fitted or top-dose-only effect; inactive = flat fitted curve, though single readings scatter.
Your reply should match one of these outcome classes. YES for active, NO for inactive

So what was the verdict on CCC1(CCC(C)C)C(=O)NC(=O)NC1=O in this test?
NO

Test call for this molecule, please: N=c1c2c(-c3ccccc3)c(-c3ccccc3)n(Cc3ccccc3)c2ncn1C1CCC(O)CC1 (stereo not given)
YES

Recorded call for C[C@]12COC(=O)C[C@@H]1CC[C@@H]1[C@H]2CC[C@@]2(C)[C@H]1CC[C@]2(C)O ?
NO

What is the recorded call for this molecule in the test? CC(=CCCC1=CCC(C2=CC(=O)OC2O)OC1O)CCC1=C(C)CCCC1(C)C (stereo not given)
NO
